Reported IC50 by item:
# MEASUREMENT_TARGET: VIM-1 (Pseudomonas aeruginosa (strain ATCC 15692 / DSM 22644 / CIP 104116 / JCM 14847 / LMG 12228 / 1C / PRS 101 / PAO1), UniProt A0A0F7KYQ8)
# ASSAY_INFO: Enzyme activity: determination of IC50, fluorescence assay with CCF2-FA substrate (VIM-1)
# Format: biochemical
# TEST_PARAMETERS: fluorescence assay with CCF2-FA substrate; read-out: VIM-1 IC50
Note to self: number, then unit, no commentary.

Below, 3 compounds whose answers are already recorded.
COMPOUND: NS(=O)(=O)c1cccc(C2CCCCC2)c1-c1nnn[nH]1
IC50: 31.5 nM
//
COMPOUND: Cc1csc(-c2cccc(S(N)(=O)=O)c2-c2nn[nH]n2)n1
IC50: 1440 nM
//
COMPOUND: CC(C)Cc1cccc(S(N)(=O)=O)c1-c1nn[nH]n1
IC50: 1030 nM

Task: GET /values?readout=IC50&item= NS(=O)(=O)c1cccc(-c2ccc(S(=O)(=O)NC3CC3)cc2)c1-c1nn[nH]n1
Result: 27.8 nM

Task: GET /values?readout=IC50&item= NS(=O)(=O)c1cccc(C2=CCSCC2)c1-c1nn[nH]n1
Result: 186 nM

* * *

# MEASUREMENT_TARGET: IMP-1 (Serratia marcescens)
# Sequence (P52699 whole entry, looked up): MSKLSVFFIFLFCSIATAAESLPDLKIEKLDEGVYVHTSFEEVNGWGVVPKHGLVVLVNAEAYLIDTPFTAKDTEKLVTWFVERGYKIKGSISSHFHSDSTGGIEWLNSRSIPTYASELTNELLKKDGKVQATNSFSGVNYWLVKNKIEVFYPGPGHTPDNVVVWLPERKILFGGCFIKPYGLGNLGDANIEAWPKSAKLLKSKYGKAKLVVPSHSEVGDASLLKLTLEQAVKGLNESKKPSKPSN
# ASSAY_INFO: biochemical
# Assay type: biochemical
# TEST_PARAMETERS: fluorescence assay with CCF2-FA substrate; read-out: IMP-1 IC50
Reported pIC50 by item:
pIC50 is a log-scale quantity: -log10 of the concentration expressed in molar.

Below, 5 molecules whose answers are already recorded.
MOLECULE: NCCNC1CCC(c2ccc(C(F)(F)F)c(S(N)(=O)=O)c2-c2nnn[nH]2)CC1 (centres unmarked)
ENDPOINT_NAME: pIC50
ENDPOINT_RESULT: 7.65
--
MOLECULE: NS(=O)(=O)c1nccc(N2CCC(c3ccncc3)CC2)c1-c1nnn[nH]1
ENDPOINT_NAME: pIC50
ENDPOINT_RESULT: 6.32
--
MOLECULE: NCCC1CCC(N2CC(c3ccc(-c4ccc(C(F)(F)F)c(S(N)(=O)=O)c4-c4nnn[nH]4)cc3)C2)CC1 (centres unmarked)
ENDPOINT_NAME: pIC50
ENDPOINT_RESULT: 7.90
--
MOLECULE: Cc1ccccc1-c1ccnc(S(N)(=O)=O)c1-c1nn[nH]n1
ENDPOINT_NAME: pIC50
ENDPOINT_RESULT: 6.38
--
MOLECULE: CC(C)(C)C(=O)NCC1CCN(c2ccc(C(F)(F)F)c(S(N)(=O)=O)c2-c2nnn[nH]2)CC1
ENDPOINT_NAME: pIC50
ENDPOINT_RESULT: 8.68

Task: GET /values?readout=pIC50&item= NC1CCCC(N2CC(c3ccc(-c4ccc(C(F)(F)F)c(S(N)(=O)=O)c4-c4nnn[nH]4)cc3)C2)C1 (centres unmarked)
Result: 8.05

Task: GET /values?readout=pIC50&item= NS(=O)(=O)c1cccc(-c2cnc(NC3CC3)nc2)c1-c1nnn[nH]1
Result: 6.38

Task: GET /values?readout=pIC50&item= NS(=O)(=O)c1cccc(-c2cscn2)c1-c1nn[nH]n1
Result: 5.92
